The values you see were collected from patent US10968214B2.

system: Miapaca-2; experiment: CellTiterGlo Cell Proliferation Assay, Miapaca-2; format: cell-based; settings: Homo sapiens, MIA PaCa-2, KRas G12C, Pancreas, 96 hr, read-out: IC50 (μM) in 3 D spheroid cell proliferation
Measure name: IC50 (µM)

- C=CC(=O)N1CCN(c2ncnc3c(F)c(-c4ccc(F)c5sc(N)nc45)c(Cl)cc23)CC1: 0.086

====

Reported IC50 by item:
Tested on: H2030
Assay: Combination 4 day growth assay (Cell TiterGlo), H2030
Type: cell-based
Settings: Homo sapiens, NCI-H2030, 96 h, single treatment, read-out: Absolute IC50
Experimental: Cell lines for this study are obtained from ATCC and grown under ATCC recommended conditions, except for LXFA-983L, which is obtained from Oncotest/Charles Rivers Laboratories, Wilmington, Mass. and D122-96, which is obtained from L. Eisenbach (Weizman Institute of Science, Rehovot, Israel)—both grown under recommended conditions. […] The proliferation assay is performed as a 4 day growth assay using Cell TiterGlo® as the readout. […]
Measure name: IC50 (µM)

• C#Cc1cccc(Nc2ncnc3cc(OCCOC)c(OCCOC)cc23)c1 = 1.48
• CCN1CCN(Cc2ccc(Nc3ncc(F)c(-c4cc(F)c5nc(C)n(C(C)C)c5c4)n3)nc2)CC1 = 9.03

====

tested on: A549; assay: CellTiterGlo Cell Proliferation Assay, A549; assay type: cell-based; conditions: Homo sapiens, KRas G12S, lung, 96 hr, read-out: IC50 (μM) in 3 D spheroid cell proliferation
Measure name: IC50 (µM)

* C=CC(=O)N1CCN(c2ncnc3c(F)c(-c4ccc(F)c5sc(N)nc45)c(Cl)cc23)CC1 | 5.94

====

test system: D122-96; assay: CellTiterGlo Cell Proliferation Assay, D122-96; assay type: cell-based; conditions: KRas G12C, Lung (mouse), 96 hr, read-out: IC50 (μM) in 2 D cell proliferation
Measure name: IC50 (µM)

- C=CC(=O)N1CCN(c2ncnc3c(F)c(-c4ccc(F)c5sc(N)nc45)c(Cl)cc23)CC1: 0.126

====

system: H1792; assay: Combination 4 day growth assay (Cell TiterGlo), H1792; type: cell-based; conditions: Homo sapiens, NCI-H1792, 96 h, single treatment, read-out: Absolute IC50
pIC50: −log10 of the molar value.
Measure name: pIC50

* CCN1CCN(Cc2ccc(Nc3ncc(F)c(-c4cc(F)c5nc(C)n(C(C)C)c5c4)n3)nc2)CC1 | 5.96

====

system: MIA Paca-2; test: Combination 4 day growth assay (Cell TiterGlo), MIA Paca-2; type: cell-based; details: Homo sapiens, MIA PaCa-2, 96 h, single treatment, read-out: Absolute IC50
Measure name: IC50

• C#Cc1cccc(Nc2ncnc3cc(OCCOC)c(OCCOC)cc23)c1 = > 10000 nM
• C=CC(=O)N1CCN(c2ncnc3c(F)c(-c4ccc(F)c5sc(N)nc45)c(Cl)cc23)CC1 = 22 nM

====

system: HCC827; assay: CellTiterGlo Cell Proliferation Assay, HCC827; assay type: cell-based; conditions: Homo sapiens, KRas wild type, lung, 96 hr, read-out: IC50 (μM) in 3 D spheroid cell proliferation
Measure name: IC50 (µM)

- C=CC(=O)N1CCN(c2ncnc3c(F)c(-c4ccc(F)c5sc(N)nc45)c(Cl)cc23)CC1 [Example 1]: 4.63
